Data origin, for the record: ChEMBL document CHEMBL5154678

system: Erythrocyte; test: Hemolytic activity against human RBC assessed as concentration required to cause 10% hemolysis; type: toxicity, cell-based
Starred links: 1 amine or outer side, 2 acyl side, 3 side chain; linkers in the order of their positions; H or OH if unused. Positions of bridges follow the written chain, without caps; N, C: chain ends. Non-standard residues stand in square brackets, D forms with d. Residues, ends and D or L forms follow the SMILES beside them. X1 = O=C([C@H](CCCCNCC=[*:3])N[*:1])[*:2]
MEASURED_ENDPOINT: MHC (µg/mL)
Kindly provide the numeric value in µg/mL only, without the unit symbol.

Give reported MHC value for CC(C)C[C@@H]1NC(=O)[C@H](C)NC(=O)[C@@H](NC(=O)[C@H](C)NC(=O)[C@H](C)NC(=O)CNC(=O)[C@H](CCCCN)NC(=O)[C@H](CC(C)C)NC(=O)[C@H](CC(C)C)NC(=O)[C@H](CC(=O)O)NC(=O)[C@H](CCCCN)NC(=O)[C@H](Cc2ccccc2)NC(=O)CN)CCCCNC/C=C/CNCCCC[C@@H](C(=O)N[C@H](C(=O)N[C@H](C(=O)N[C@@H](CC(C)C)C(=O)N[C@@H](Cc2ccccc2)C(N)=O)C(C)C)[C@@H](C)O)NC(=O)[C@H](C(C)C)NC1=O (H-GFKDLLKGAA[X1]ALV[X1]TVLF-NH2; staple (E) 11-15) 32
